B1: library; numbered along this chain (parent)
chain: MAAAGGARLLRAASAVLGGPAGRWLHHAGSRAGSSGLLRNRGPGGSAEASRSLSVSARARSSSEDKITVHFINRDGETLTTKGKVGDSLLDVVVENNLDIDGFGACEGTLACSTCHLIFEDHIYEKLDAITDEENDMLDLAYGLTDRSRLGCQICLTKSMDNMTVRVPETVADARQSIDVGKTS

Variants of: B1
Experiment: scaled log2 fold change in cell abundance, elesclomol vs control (0 = silent mean, 1 = nonsense mean) (scaled log2 ratio); higher = higher viability under elesclomol (loss of FDX1 cuproptosis function);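 note: variant abundance is its share of total variant reads in each endpoint sample, from next-generation sequencing of the integrated ORF PCR-amplified out of genomic DNA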
Conditions: with HEK293T FDX1 KO; elesclomol 40 nM; glucose 10 mM; 11 days
Catalogue of scaled log2 fold change readings, one per entry.
Write the number on its own, no unit after it.

{"changes": "D139P", "scaled log2 fold change": -0.395}
{"changes": "E125C", "scaled log2 fold change": 0.0813}
{"changes": "S177L", "scaled log2 fold change": -0.529}
{"changes": "G143L", "scaled log2 fold change": 0.114}
{"changes": "G19W", "scaled log2 fold change": -0.266}
{"changes": "G33Y", "scaled log2 fold change": 0.657}
{"changes": "A57V", "scaled log2 fold change": 0.356}
{"changes": "A141C", "scaled log2 fold change": -1.33}
{"changes": "D99W", "scaled log2 fold change": -0.818}
{"changes": "G45E", "scaled log2 fold change": 1.07}

Form: variant = `D99H` ; scaled log2 fold change = -0.137

Given item `R149F` , the value recorded as its scaled log2 fold change is 1.08

Per the record, `R149L` has scaled log2 fold change of 0.937

Record summary for `C152Q` : reported scaled log2 fold change = 1.18

// sample `G45M` , its scaled log2 fold change was -0.315

For this variant ( `Q153R` ), measured scaled log2 fold change is 1.14

// field: scaled log2 fold change; key: `L156V` ; value = 0.664

For `E120G` the variant record lists scaled log2 fold change as -0.0815
